biological target: IRAK4 (Homo sapiens (Human)); experiment: IRAK4 Kinase Assay; format: biochemical; settings: IMAP fluorescence polarization, 0.5 nM GST tagged IRAK4, 100 μM ATP, 30 minutes at 25° C.; read-out: IRAK4 IC50
Sequence (Q9NWZ3 whole entry): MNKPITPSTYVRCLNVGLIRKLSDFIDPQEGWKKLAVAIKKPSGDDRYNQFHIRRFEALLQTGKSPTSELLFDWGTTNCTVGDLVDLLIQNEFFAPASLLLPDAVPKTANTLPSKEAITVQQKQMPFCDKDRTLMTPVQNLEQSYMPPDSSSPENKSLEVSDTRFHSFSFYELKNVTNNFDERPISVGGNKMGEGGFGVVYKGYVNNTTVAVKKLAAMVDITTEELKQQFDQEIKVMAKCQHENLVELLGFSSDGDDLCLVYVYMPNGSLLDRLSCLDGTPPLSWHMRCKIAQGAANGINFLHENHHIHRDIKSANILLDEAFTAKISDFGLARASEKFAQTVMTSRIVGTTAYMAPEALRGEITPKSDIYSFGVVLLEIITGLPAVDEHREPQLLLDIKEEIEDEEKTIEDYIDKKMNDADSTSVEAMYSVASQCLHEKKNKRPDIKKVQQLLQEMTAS
Where a name gives a salt, the structure may show the parent alone.
Endpoint: pIC50
Please note pIC50 is a logarithmic value: minus log10 of concentration in mol/L. Answer with that number alone.

Completed entries (count: 2):
O=C(Nc1cn(CC(F)F)nc1C(F)(F)F)c1cnn2ccc(N3CC4CCC3CN4)nc12 (stereo not drawn) [Example 65, trifluoroacetate] ... 7.23
Cn1cc(NC(=O)c2cnn3ccc(N[C@H]4CCCCNC4)nc23)c(C(F)(F)F)n1 (single isomer, unassigned) [Example 159, trifluoroacetate] ... 7.74

Let us move to another entry and its pIC50.
Request: Annotate the molecule O=C(Nc1cn(CC(F)(F)F)nc1C(F)(F)F)c1cnn2ccc(N3CCNCC4(CC4)C3)nc12 [Example 70, trifluoroacetate] with its measured pIC50.
Result: 7.29
